# credit: patent US20220002395A1

Recorded OD value at 450 nm (ref 630 nm), one value per entry.
- study.target: T1, Plasmodium falciparum histidine-rich protein II (HRP-II) (Plasmodium falciparum, UniProt P05227 22-332)
- T1 construct: Coating antigen of all ELISAs; also called HRP-II protein; MA-HRPII Ag protein
- T1 sequence (looked up): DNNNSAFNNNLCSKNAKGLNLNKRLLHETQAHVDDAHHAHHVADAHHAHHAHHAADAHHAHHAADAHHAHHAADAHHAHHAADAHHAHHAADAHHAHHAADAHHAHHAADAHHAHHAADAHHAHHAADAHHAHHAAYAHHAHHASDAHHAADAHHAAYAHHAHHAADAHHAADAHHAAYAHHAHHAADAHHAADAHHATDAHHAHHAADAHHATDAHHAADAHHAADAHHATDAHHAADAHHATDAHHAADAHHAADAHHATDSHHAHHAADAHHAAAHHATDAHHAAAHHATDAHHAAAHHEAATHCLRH
- protocol.details: indirect ELISA, coated MA-HRPII Ag 1 ug/ml, antibody 1000 ng/ml
readout.label: OD value at 450 nm (ref 630 nm) (OD)

| binder | unit | result.value |
| --- | --- | --- |
| Mutation 2 (antibody, mouse IgG2b, kappa, V domains shown, WT as framework) VH: EVQLQQSGPEVVKPGASVKISCKASGSTLTEYYMNWVKQSHGKGLEWIGDLNPINGGTPYQQKFRDKATLTVDKSSNTAYMELRSLTSEDSALYYCTRGAEEYWGQGTTLTVSS VL: DVVLTQTPLSLSVTIGQPASISCKSSQSIIYSNGKIYLNWFQQRPGQSPKRLMYQLSKIDPGIPDRFSGSGSETDFTLKISRVEAEDLGVYYCLQGTYSPNTFGGGTKLEIKR | OD | 2.23 |
| Anti-HRP-II 3R5 monoclonal antibody (recombinant, expressed in CHO cells; WT) (antibody, mouse IgG2b, kappa, V domains shown, Mouse IgG; also called Anti-HRP-H3R5; CHO transient-transfected cell supernatant) VH: EVQLQQSGPEVVKPGASVKISCKASGSTLTEYYMNWVKQSHGKGLEWIGDLNPINGGTPYQQKFRDKATLTVDKSSNTAYMELRSLTSEDSALYYCTRGAEEYWGQGTTLTVSS VL: DVVLTQTPLSLSVTIGQPASISCKSSQSIIYSNGKIYINWFQQRPGQSPKRLMYQLSKIDPGIPDRFSGSGSETDFTLKISRVEAEDLGVYYCLQGTYSPNTFGGGTKLEIKR | OD | 2.34 |
| Mutation 1 (antibody, mouse IgG2b, kappa, V domains shown, also called Variant 1) VH: EVQLQQSGPEVVKPGASVKISCKASGSTLTDYYMNWVKQSHGKGLEWIGDLNPINGGTAYQQKFRDKATLTVDKSSNTAYMELRSLTSEDSALYYCTRGAEDYWGQGTTLTVSS VL: DVVLTQTPLSLSVTIGQPASISCKSSQSIIYSNGKIYLNWFQQRPGQSPKRLMYQLSKLDPGIPDRFSGSGSETDFTLKISRVEAEDLGVYYCLQGTYSPQTFGGGTKLEIKR | OD | 2.52 |
| Mutation 3 (antibody, mouse IgG2b, kappa, V domains shown, WT as framework) VH: EVQLQQSGPEVVKPGASVKISCKASGSTLTQYYMNWVKQSHGKGLEWIGDLNPINGGTVYQQKFRDKATLTVDKSSNTAYMELRSLTSEDSALYYCTRGAEMYWGQGTTLTVSS VL: DVVLTQTPLSLSVTIGQPASISCKSSQSIIYSNGKIYGNWFQQRPGQSPKRLMYQLSKFDPGIPDRFSGSGSETDFTLKISRVEAEDLGVYYCLQGTYSPMTFGGGTKLEIKR | OD | 0.814 |
